B1: EEHEE_rd4_0003 (parent)
chain: KKVTINGVEIKFNNPEEAVKFALELAKRLNLRIEFHGDQIKIE

Variants of: B1
Assay: folding stability dG (cDNA display proteolysis); higher = more stable
Conditions: PBS, room temperature
Label class 0 if folding stability dG falls below 2 kcal/mol; label class 1 in every other case.

Example cases with answers are listed next.
Mutant Name | Category Label
L29W | class 1
A26G | class 0
A18C | class 1

[in] Determine whether this variant has folding stability dG no lower than 2 kcal/mol: A22M
[out] class 1

[in] What about this variant? P15K
[out] class 1

[in] What about this variant? K41F
[out] class 1

[in] What about this variant? L23C
[out] class 1

[in] What about this variant? F12D
[out] class 0

Where these numbers come from: the MegaScale stability set (Tsuboyama et al. 2023)
